targetOfAssay: monoclonal antibody DD-6
procedureDetails: Competition ELISA with monoclonal antibody DD-6
Type: binding, Biozzi mice
testContext: competitor vs monoclonal antibody DD-6; plate coated with A-triCDD-RSA
Please provide measured I50 (inhibits antibody binding by 50%) for the entries that follow.

So what does the record say about I50 (inhibits antibody binding by 50%) for Clc1ccc(C(c2ccc(Cl)cc2)C(Cl)(Cl)Cl)cc1 [DDT] ?
> 2000 ng

Entry under review: Clc1cc2c(cc1Cl)Oc1c(cc(Cl)c(Cl)c1Cl)O2 [1,2,3,7,8-penta-CDD] . Reported I50 (inhibits antibody binding by 50%)?
> 0.004 ng

What does the record list as I50 (inhibits antibody binding by 50%) for Clc1ccc(-c2c(Cl)cc(Cl)c(Cl)c2Cl)c(Cl)c1Cl [2,2',3,3',4,4',6-Hepta-CBP] ?
> 200 ng

Recorded I50 (inhibits antibody binding by 50%) for Clc1ccccc1 [Chlorobenzene] , please?
> 2000 ng
